system: A498; test: NCI tumour cell line growth inhibition, 48 h
Activity calls are given as the source filed them. Rule as the data show it: active = GI50 up to about 1.1 µM and inactive = higher.
attribute measured: GI50

- Cn1c(=O)c2[nH]c(/N=N\n3ccc4ccccc43)nc2n(C)c1=O: > 100 µM (inactive)
- CC(=O)N1C(=O)/C(=C\C(=O)c2ccc([N+](=O)[O-])cc2)c2ccccc21: > 100 µM (inactive)
- COCn1c(C)c(C)c2c(=O)oc(N(C)C)nc21: 39 µM (inactive)
- Cc1cn(CC2=NCC(C)N2)c(=O)[nH]c1=O (configuration not stated): > 100 µM (inactive)
- CS/C(=N/C(=O)c1ccccc1Cl)SCCS/C(=N\C(=O)c1ccccc1Cl)SC: > 100 µM (inactive)
- O=C(O)C(F)(OC(F)(F)C(F)(OC(F)(F)C(F)(F)C(F)(F)F)C(F)(F)F)C(F)(F)F (configuration not stated): > 100 µM (inactive)
- O=C(C[C@H](NC(=O)OCc1ccccc1)C(=O)NC1Cc2ccccc2OC1=O)OCc1ccccc1 (some centres not stated): > 100 µM (inactive)
- O=C(NNC(=O)c1ccccc1S)c1ccccc1S [BIS(THIOSALICYL)HYDRAZIDE]: > 100 µM (inactive)
- COC(=O)CC1(O)C(=O)OCc2c1cc1n(c2=O)Cc2c-1nc1ccccc1c2OC (configuration not stated): 0.724 µM (active)
- COc1cccc2c1[C@]1(O)C(O)CCCC21 (some centres not stated): > 100 µM (inactive)
- CCOC(=O)C(NC(=O)c1ccc(/N=N/N(C)C)cc1)C(C)C (configuration not stated): > 100 µM (inactive)
- COC(=O)CC[N+]1=CCC(c2ccccc2)(c2ccccc2)O1: > 100 µM (inactive)
- Cc1ccc(C(=O)O)c(/C=C2\Cc3ccc(C)cc3C2=O)c1: 65.9 µM (inactive)
- CCOCN/C(N)=N\C#N: > 100 µM (inactive)
- C=C(C)C(=O)OC1CCC2(C)C(CCC3C2CCC2(C)C(c4ccc(=O)oc4)CC4OC432)C1 (configuration not stated): 5.02 µM (inactive)
- Cn1c(=O)cc(/N=N\c2ccc(Cl)c(Cl)c2)[nH]c1=O: > 100 µM (inactive)
- CN(C)CCNC(=O)c1cccc2c(NC(CCC(N)=O)C(=O)O)c3ccccc3nc12 (configuration not stated): 16.2 µM (inactive)

----------
# Lookup of reported GI50 keyed by entry
test system: ACHN; assay: NCI tumour cell line growth inhibition, 48 h
Activity calls are given as the source filed them. No stated cut-off is given here; in the data, active = GI50 up to about 1.1 µM and inactive = higher.
attribute measured: GI50

* Cc1ccc([N+](=O)[O-])cc1S(=O)(=O)Nc1ccc(C2=NOC(c3cccs3)C2)cc1 (stereo unspecified) | 14.8 µM (inactive)
* Cc1cn(CC2=NCC(C)N2)c(=O)[nH]c1=O (stereo unspecified) | > 100 µM (inactive)
* COc1ccc2nc(NC(=O)C(=O)C(C#N)c3ccc(CC#N)cc3)sc2c1 (stereo unspecified) | > 100 µM (inactive)
* CCOC(=O)C(Cc1ccc(OC(=O)c2ccc(OC)cc2OC)cc1)NC(=O)C(F)(F)F (stereo unspecified) | 17.2 µM (inactive)
* COP(=O)(/C=C/c1cc(C(=O)OCc2ccccc2)n(S(=O)(=O)c2ccccc2)c1)OC | > 100 µM (inactive)
* O=C(N/C(=C\c1ccc(/C=C(\NC(=O)c2ccccc2)c2nc3cc([N+](=O)[O-])ccc3[nH]2)cc1)c1nc2cc([N+](=O)[O-])ccc2[nH]1)c1ccccc1 | 23.2 µM (inactive)
* COC(=O)[C@@H]1C[C@H]2[C@H](c3ccccc3Br)[C@@H](OC(C)=O)[C@@H](OCc3ccccc3)ON2O1 | > 100 µM (inactive)
* O=C1N[C@H]2C(=O)c3c(Br)sc(Br)c3[C@H]2O1 | 6.78 µM (inactive)
* Cc1cn2cc(-c3ccncc3)nc2s1 | > 100 µM (inactive)
* CC(C)(C)c1cc(C(O)(C(F)(F)F)C(F)(F)F)c2c(c1)C(C(F)(F)F)(C(F)(F)F)OC(c1ccccc1)(C(C)(C)C)N2 (stereo unspecified) | 3.7 µM (inactive)
* COc1cc2nc(-c3ccc4ccccc4c3)nc(O)c2cc1OC | 48.8 µM (inactive)
* CN1CN(c2ccccc2)C2(CCN(C3Nc4ccccc4O3)CC2)C1=O (stereo unspecified) | 22 µM (inactive)
* O=C(Cc1nc2ccc([N+](=O)[O-])cc2nc1O)C(=O)Nc1ccccc1[N+](=O)[O-] | > 100 µM (inactive)
* CCOC(=O)CC(=O)Nc1cccc2sc3ncccc3c(=O)c12 | 33.3 µM (inactive)
* Oc1ccc(/C=C/c2cc(O)cc3c2C(c2cc(O)cc(O)c2)C(c2ccc(O)c(O)c2)O3)cc1 (stereo unspecified) | 15 µM (inactive)
* CC1Cc2c(cc(N)nc2Br)NC1=O (stereo unspecified) | 64.3 µM (inactive)
* [N-]=[N+]=NC12CC3C4CC5CC3C(C1)C(C5)C4C2 | > 100 µM (inactive)
* CC1=NN(c2nc(N)nc(C(C)Sc3cc(Cl)c(C)cc3S(N)(=O)=O)n2)C(C)(C)C1 (stereo unspecified) | > 10 µM (inactive)
* C=C1C(=O)C23C(O)C1CCC2C12CO[C@]3(O)[C@@H](O)C1C(C)(C)CCC2O (stereo partly specified) | 14.1 µM (inactive)
* COc1ccc(C2=NN(C(=O)c3ccccc3)C(O)(c3cc(F)c(Cl)cc3Cl)C2)cc1OC (stereo unspecified) | 32.5 µM (inactive)
* O/N=N\c1nc(-c2cccnc2)nc2ccccc12 | > 100 µM (inactive)
* CCc1ccccc1NC(=O)C(=O)C(C#N)c1ccccc1Cl (stereo unspecified) | > 100 µM (inactive)
* CC(C)C1CC(CO)(CNc2cc(Cl)nc(N)n2)C1 (stereo unspecified) | > 100 µM (inactive)
* CC12c3c4cccc3Oc3cc(N)cc(c31)Oc1cc(N)cc(c12)O4 | 11.1 µM (inactive)
* NC(=O)c1cc2cc(Cl)cc(Cl)c2o/c1=N\c1ccc(F)cc1 | 19.5 µM (inactive)
* O=C(O)c1ccc2c(O)c(O)ccc2c1 | 15.8 µM (inactive)
* CCOC(=O)C1=c2[nH]c3cccc4cccc(c43)n2C(=O)CC1 | > 100 µM (inactive)
* COC(=O)/C=C/C(=O)Nc1cc(Cl)c(Cl)cc1CC(=O)N(C)[C@H]1CCCC[C@@H]1N1CCCC1 | 2.85 µM (inactive)
* C=C1[C@H](OCC(C)C)[C@@H](O)[C@@H](OC(=O)c2cccnc2)C(C)(C)/C=C/[C@H](C)[C@H](OC(C)=O)[C@@]2(O)C[C@@](C)(OC(C)=O)[C@H](OC(=O)c3ccccc3)[C@@H]2[C@H]1OC(C)=O | 0.161 µM (active)
* COc1ccc(/C=N/NC(=O)NCCNCCO)cc1 | > 100 µM (inactive)
* COc1cc2c(cc1OC)C(Cc1ccc(Oc3cc(CC4c5cc(OC)c(OC)cc5CCN4C)ccc3O)cc1)N(C)CC2 (stereo unspecified) | 16.5 µM (inactive)

----------
test system: K562; experiment: NCI tumour cell line growth inhibition, 48 h
Activity calls are given as the source filed them. Rule as the data show it: active = GI50 up to about 1.1 µM and inactive = higher.
Outcome codes: t = active, f = inactive

- C#Cc1cc(-c2nc3ccccc3s2)ccc1N: f
- CS/C(=N/C(=O)c1ccccc1Cl)SCCS/C(=N\C(=O)c1ccccc1Cl)SC: f
- OC1CC1Sc1ccccc1 (stereo unspecified): f
- CC(=O)NC(C)(C)C1CCC(C)=C(c2ccccc2)C1 (stereo unspecified): f
- CC(C)C(C/C=C1/CC(CO)(COC(=O)c2ccccc2)OC1=O)C(C)C (stereo unspecified): f
- CSc1nc(-c2ccc(Cl)cc2)c(C#N)c(=O)n1C1OC(COC(C)=O)C(OC(C)=O)C(OC(C)=O)C1OC(C)=O (stereo unspecified): f
- COc1cc([C@@H]2c3cc(O)c(OC)cc3C=C(C(N)=O)[C@H]2C(N)=O)ccc1O: f
- C/C(=C\CBr)CCC(Br)C(C)(C)Br (stereo unspecified): f
- COc1cccc(-c2c(-c3ccccc3)[nH]c(C)c2C(=O)ONC(=O)c2ccccc2)c1: f
- COCn1c(C)c(C)c2c(=O)oc(N(C)C)nc21: f
- COC(=O)[C@@H]1C[C@H]2[C@H](c3ccccc3Br)[C@@H](OC(C)=O)[C@@H](OCc3ccccc3)ON2O1: f
- COC(=O)/C=C/COCC1C2CCC(=O)C21 (stereo unspecified): f
- COc1ccc(N2C(=O)C3c4[nH]c5ccc(OC)cc5c4C4CCC(C(C)C)CC4C3C2=O)cc1 (stereo unspecified): f
- CNS(=O)(=O)NNS(=O)(=O)c1cccc([N+](=O)[O-])c1: f
- NC1=NS(=O)(=O)Nc2nc(-c3cccs3)[nH]c21: f
- C/C(=C\CNc1ncnc2c1ncn2CCC(=O)OC(C)(C)C)CO: f
- CCOc1ccc(NC(=O)C(=O)CC(=O)c2sc(NNC(C)=O)nc2C)cc1: f
- CC(=O)Nc1c(C)ccc2c1C(=O)c1ccccc1C2=O: f
- COC(=O)Cc1c2n(c3ccccc13)C(=O)N1c3ccccc3C(CC(=O)OC)C21 (stereo unspecified): f
- COc1cc2nc(-c3ccc4ccccc4c3)nc(O)c2cc1OC: f
- COC(=O)C(Cc1cc(OC)c(OC)c(OC)c1)C(=O)OC: f
- CCOC(=O)C(C(=O)OCC)=C1NC2(c3ccccc3Nc3ccc(C)cc32)C(C(=O)OC)S1 (stereo unspecified): f
- Cc1cc2c(c(C(N)=O)c1C)-c1cc(Cl)cc(Cl)c1C2=O: f
- Cc1cc2ccc(OC(=O)c3ccc(NC(=N)N)cc3)cc2oc1=O: f
- CC/C(=N/O)C(C)C(=O)CCC(=O)Nc1ccc(Cl)cc1 (stereo unspecified): f
- Cn1cc2ccccc2c1-c1nc(N)nc(F)n1: f
- CCOc1ncn(-c2ccc(NC(=S)Nc3cnccn3)cc2)n1: f
- CNC(=O)NCCCCC(NC(=O)OCc1ccccc1)C(=O)OCc1ccccc1 (stereo unspecified): f
- O=c1ccs[nH]1: f
- COc1cc([C@@H]2c3[nH]c4ccccc4c3C(Nc3ccc([N+](=O)[O-])cc3)[C@H]3COC(=O)N23)cc(OC)c1O (stereo partly specified): t
- COc1ccc2nc(NC(=O)C(=O)C(C#N)c3ccc(CC#N)cc3)sc2c1 (stereo unspecified): f
